Test system: Rattus norvegicus
Test Details: Anti-inflammatory activity against Rattus norvegicus Wistar albino (rat) assessed as inhibition of carrageenan-induced paw edema at 20 mg/kg, ip measured 3 hr after carrageenan challenge by plethysmometer
Format: functional
Condition Summary: route intraperitoneal
Readout Type: inhibition in vivo at 20 mg/kg (%)
Field format: number, assumed %, no unit text.

Past entries and their recorded results:
- Cc1ccc(/C=C(/NC(=O)c2ccccc2)c2nc3ccccc3[nH]2)cc1: 39.4
- O=C(N/C(=C/c1ccccc1Cl)c1nc2ccc([N+](=O)[O-])cc2[nH]1)c1ccccc1: 42.4

Report inhibition in vivo at 20 mg/kg for Cc1ccc2nc(/C(=C\c3ccccc3Cl)NC(=O)c3ccccc3)[nH]c2c1 please.
36.4

Bench note: what inhibition in vivo at 20 mg/kg did CN(C)c1ccc(/C=C(/NC(=O)c2ccccc2)c2nc3ccccc3[nH]2)cc1 show?
18.2

What does the data say about its inhibition in vivo at 20 mg/kg? Entry: O=C(N/C(=C/c1ccccc1)c1nc2ccc([N+](=O)[O-])cc2[nH]1)c1ccccc1
33.3

What measured inhibition in vivo at 20 mg/kg goes with Cc1ccc2nc(/C(=C\c3ccccc3)NC(=O)c3ccccc3)[nH]c2c1 ?
27.3

What inhibition in vivo at 20 mg/kg value was documented for this compound, COc1ccc(/C=C(/NC(=O)c2ccccc2)c2nc3ccccc3[nH]2)cc1 ?
39.4

# query: inhibition in vivo at 20 mg/kg of entry O=C(N/C(=C/c1ccccc1Cl)c1nc2ccccc2[nH]1)c1ccccc1
30.3

Requested read-out: inhibition in vivo at 20 mg/kg. Entry: O=C(N/C(=C/c1ccccc1)c1nc2ccccc2[nH]1)c1ccccc1
39.4
